- Test system: human apolipoprotein B mRNA
- procedure summary: Inhibition of human apolipoprotein B mRNA levels in HepG2 cells, quantitative real-time PCR
- Format: cell-based
- study conditions: HepG2 cells; 150 nm oligonucleotide; variable deoxy gap position
Output true for % INHIB 150 nm not less than 90%; output false otherwise.

Is it the case that 308637 (AGGTTACCAGCCACATGCAG; 1-10-9 MOE gapmer, phosphorothioate, chemistry not fully specified) [compound 308637] has % INHIB 150 nm reaching or exceeding 90%?
true

Please check the record 308659 (antisense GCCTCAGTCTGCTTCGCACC; 9-10-1 2'-MOE gapmer, phosphorothioate, chemistry not fully specified) [compound 308659] and state if its % INHIB 150 nm is at or above 90%.
true

Quick check, % INHIB 150 nm >= 90%? 308662 (antisense TGGTAGCCTCAGTCTGCTTC; 8-10-2 2'-MOE gapmer, phosphorothioate, chemistry not fully specified) [compound 308662]
false

Exam item: decide whether the reported % INHIB 150 nm for 308631 (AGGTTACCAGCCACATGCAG; 0-10-10 MOE gapmer, phosphorothioate, chemistry not fully specified) [compound 308631] is at least 90%.
true

Say whether 308635 (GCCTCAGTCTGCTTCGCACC; 10-10-0 MOE gapmer, phosphorothioate, chemistry not fully specified) [compound 308635] shows % INHIB 150 nm of 90% or more.
true

Check this substance for % INHIB 150 nm at or above 90%: 308634 (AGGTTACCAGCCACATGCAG; 10-10-0 MOE gapmer, phosphorothioate, chemistry not fully specified) [compound 308634]
false

Reported % INHIB 150 nm reaches at least 90% for 308638 (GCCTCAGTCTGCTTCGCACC; 1-10-9 MOE gapmer, phosphorothioate, chemistry not fully specified) [compound 308638] ?
true

Exam item: decide whether the reported % INHIB 150 nm for 308632 (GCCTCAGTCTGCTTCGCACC; 0-10-10 MOE gapmer, phosphorothioate, chemistry not fully specified) [compound 308632] is at least 90%.
true

Quick check, % INHIB 150 nm >= 90%? 308652 (antisense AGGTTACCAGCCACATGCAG; 7-10-3 2'-MOE gapmer, phosphorothioate, chemistry not fully specified) [compound 308652]
true

Quick check, % INHIB 150 nm >= 90%? 308656 (antisense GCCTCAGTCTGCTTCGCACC; 8-10-2 2'-MOE gapmer, phosphorothioate, chemistry not fully specified) [compound 308656]
true
